Tested on: Acinetobacter baumannii ATCC 19606
assay.explanation: Inhibition of bacterial growth in culture (MIC, spiral gradient endpoint)
Format: cell-based
measurement.parameters: Acinetobacter baumannii, ATCC19606; Mueller-Hinton II agar, 16 h at 37° C.
readout.kind: MIC (µg/mL)
Please reply with the bare figure in µg/mL and do not write the unit itself.

Exercise: Note MIC for the compound shown: CCCCCCC/C=C/C=C(\C)C(=O)c1c(O)cc(C(C)CC/C=C/NC(=O)OC)oc1=O (stereo not shown)
Solution: 5.6

Exercise: Note MIC for the compound shown: CCCCCCCC/C=C/C=C(\C)C(=O)c1c(O)cc([C@H](C)CC/C=C/NC(=O)OC)oc1=O (racemic)
Solution: 3.1

Exercise: Note MIC for the compound shown: CCCCCC/C(C)=C/C=C(\C)C(=O)c1c(O)cc(C(C)CC/C=C/NC(=O)OC)oc1=O (stereo not shown)
Solution: 5.5

----------
readout.kind: MIC

Exercise: State, for Escherichia coli D21f2tolC, measured MIC of the molecule listed here: CCCCCCC/C=C/C=C(\C)C(=O)c1c(O)cc(C(C)CC/C=C/NC(=O)OC)oc1=O (stereo not shown) [compound 3]
Solution: < 0.18 µg/mL

Exercise: State, for Escherichia coli D21f2tolC, measured MIC of the molecule listed here: CCCCC/C=C/C=C(\C)C(=O)c1c(O)cc(C(C)CC/C=C/NC(=O)OC)oc1=O (stereo not shown) [compound 1]
Solution: 0.3 µg/mL

Exercise: State, for Escherichia coli D21f2tolC, measured MIC of the molecule listed here: CCCCCC/C=C/C=C(\C)C(=O)c1c(O)cc(C(C)CC/C=C/NC(=O)OC)oc1=O (stereo not shown) [compound 2]
Solution: 0.23 µg/mL

Exercise: State, for Escherichia coli D21f2tolC, measured MIC of the molecule listed here: CCCC/C(C)=C/C=C(\C)C(=O)c1c(O)cc(CCC/C=C/NC(=O)OC)oc1=O [7-desmethyl-Myx B, reference compound]
Solution: 0.195 µg/mL

----------
For each entry below, report its IC50 value.
system.under.test: M. tuberculosis RNA polymerase (Mycobacterium tuberculosis, UniProt P9WGY7+P9WGY9)
assay.explanation: Inhibition of Mycobacterium tuberculosis RNA polymerase (fluorescence-detected)
Type: biochemical
Answer format: number, then unit.

Exercise: State, for M. tuberculosis RNA polymerase (Mycobacterium tuberculosis, UniProt P9WGY7+P9WGY9), measured IC50 of the molecule listed here: CCCC/C(C)=C/C=C(\C)C(=O)c1c(O)cc(CCC/C=C/NC(=O)OC)oc1=O [7-desmethyl-Myx B, reference compound]
Solution: 81 nM

Exercise: State, for M. tuberculosis RNA polymerase (Mycobacterium tuberculosis, UniProt P9WGY7+P9WGY9), measured IC50 of the molecule listed here: CCCC/C(C)=C/C=C(\C)C(=O)c1c(O)cc(C(C)CC/C=C/NC(=O)OC)oc1=O (centres unmarked) [Myx B, reference compound]
Solution: 130 nM

----------
system.under.test: S. aureus RNA polymerase (Staphylococcus aureus, UniProt P47768+Q2G0N5)
Sequence (P0A0J0 whole entry): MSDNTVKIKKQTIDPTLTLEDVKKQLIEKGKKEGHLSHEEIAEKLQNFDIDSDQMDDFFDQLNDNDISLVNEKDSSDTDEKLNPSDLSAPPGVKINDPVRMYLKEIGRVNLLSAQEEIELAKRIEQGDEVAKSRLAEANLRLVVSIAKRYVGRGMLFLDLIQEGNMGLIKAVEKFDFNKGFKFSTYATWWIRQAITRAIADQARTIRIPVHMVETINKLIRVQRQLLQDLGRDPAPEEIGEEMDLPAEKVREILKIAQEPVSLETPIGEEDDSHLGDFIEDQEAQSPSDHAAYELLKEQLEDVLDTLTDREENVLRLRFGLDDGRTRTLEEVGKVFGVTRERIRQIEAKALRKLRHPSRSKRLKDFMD
Sequence (Q2G0N5 whole entry): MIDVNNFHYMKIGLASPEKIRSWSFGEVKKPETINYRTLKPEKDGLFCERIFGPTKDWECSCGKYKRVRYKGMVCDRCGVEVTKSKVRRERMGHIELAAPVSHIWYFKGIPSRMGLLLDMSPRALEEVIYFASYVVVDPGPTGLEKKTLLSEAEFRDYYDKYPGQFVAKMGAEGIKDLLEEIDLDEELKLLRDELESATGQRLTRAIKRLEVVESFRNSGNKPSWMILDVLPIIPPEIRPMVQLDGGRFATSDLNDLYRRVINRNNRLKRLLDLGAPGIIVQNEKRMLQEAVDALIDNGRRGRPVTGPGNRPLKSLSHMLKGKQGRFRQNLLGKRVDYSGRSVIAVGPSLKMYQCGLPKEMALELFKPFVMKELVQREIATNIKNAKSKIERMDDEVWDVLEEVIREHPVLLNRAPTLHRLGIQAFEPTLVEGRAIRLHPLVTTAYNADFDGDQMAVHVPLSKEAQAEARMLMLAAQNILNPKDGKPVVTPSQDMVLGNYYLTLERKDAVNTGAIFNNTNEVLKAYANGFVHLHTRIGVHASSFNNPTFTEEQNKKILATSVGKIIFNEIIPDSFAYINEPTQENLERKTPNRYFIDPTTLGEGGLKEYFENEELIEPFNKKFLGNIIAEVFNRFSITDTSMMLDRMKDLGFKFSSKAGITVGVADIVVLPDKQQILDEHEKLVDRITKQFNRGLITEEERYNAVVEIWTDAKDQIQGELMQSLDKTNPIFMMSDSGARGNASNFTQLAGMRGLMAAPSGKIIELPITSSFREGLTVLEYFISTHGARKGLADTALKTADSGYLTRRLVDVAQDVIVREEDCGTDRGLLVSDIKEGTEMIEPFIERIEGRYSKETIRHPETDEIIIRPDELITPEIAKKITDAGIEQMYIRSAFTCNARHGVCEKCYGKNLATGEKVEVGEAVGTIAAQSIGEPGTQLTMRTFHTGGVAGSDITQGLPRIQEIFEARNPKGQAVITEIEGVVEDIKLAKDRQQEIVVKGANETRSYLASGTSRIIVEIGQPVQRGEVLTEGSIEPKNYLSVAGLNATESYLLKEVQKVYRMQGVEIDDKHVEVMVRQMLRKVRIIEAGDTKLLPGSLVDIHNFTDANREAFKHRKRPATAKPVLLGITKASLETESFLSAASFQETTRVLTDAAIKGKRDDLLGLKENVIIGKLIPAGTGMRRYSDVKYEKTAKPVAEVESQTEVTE
Sequence (Q2FW32 whole entry, further chain): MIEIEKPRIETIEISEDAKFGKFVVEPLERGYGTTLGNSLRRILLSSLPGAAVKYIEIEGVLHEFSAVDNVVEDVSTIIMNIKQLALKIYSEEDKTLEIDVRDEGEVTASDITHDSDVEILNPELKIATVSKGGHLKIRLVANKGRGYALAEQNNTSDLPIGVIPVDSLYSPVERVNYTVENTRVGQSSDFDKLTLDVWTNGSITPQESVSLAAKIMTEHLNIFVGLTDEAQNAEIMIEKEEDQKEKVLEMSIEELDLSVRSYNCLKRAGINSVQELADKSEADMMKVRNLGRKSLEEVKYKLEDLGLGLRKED
Sequence (P47768 whole entry): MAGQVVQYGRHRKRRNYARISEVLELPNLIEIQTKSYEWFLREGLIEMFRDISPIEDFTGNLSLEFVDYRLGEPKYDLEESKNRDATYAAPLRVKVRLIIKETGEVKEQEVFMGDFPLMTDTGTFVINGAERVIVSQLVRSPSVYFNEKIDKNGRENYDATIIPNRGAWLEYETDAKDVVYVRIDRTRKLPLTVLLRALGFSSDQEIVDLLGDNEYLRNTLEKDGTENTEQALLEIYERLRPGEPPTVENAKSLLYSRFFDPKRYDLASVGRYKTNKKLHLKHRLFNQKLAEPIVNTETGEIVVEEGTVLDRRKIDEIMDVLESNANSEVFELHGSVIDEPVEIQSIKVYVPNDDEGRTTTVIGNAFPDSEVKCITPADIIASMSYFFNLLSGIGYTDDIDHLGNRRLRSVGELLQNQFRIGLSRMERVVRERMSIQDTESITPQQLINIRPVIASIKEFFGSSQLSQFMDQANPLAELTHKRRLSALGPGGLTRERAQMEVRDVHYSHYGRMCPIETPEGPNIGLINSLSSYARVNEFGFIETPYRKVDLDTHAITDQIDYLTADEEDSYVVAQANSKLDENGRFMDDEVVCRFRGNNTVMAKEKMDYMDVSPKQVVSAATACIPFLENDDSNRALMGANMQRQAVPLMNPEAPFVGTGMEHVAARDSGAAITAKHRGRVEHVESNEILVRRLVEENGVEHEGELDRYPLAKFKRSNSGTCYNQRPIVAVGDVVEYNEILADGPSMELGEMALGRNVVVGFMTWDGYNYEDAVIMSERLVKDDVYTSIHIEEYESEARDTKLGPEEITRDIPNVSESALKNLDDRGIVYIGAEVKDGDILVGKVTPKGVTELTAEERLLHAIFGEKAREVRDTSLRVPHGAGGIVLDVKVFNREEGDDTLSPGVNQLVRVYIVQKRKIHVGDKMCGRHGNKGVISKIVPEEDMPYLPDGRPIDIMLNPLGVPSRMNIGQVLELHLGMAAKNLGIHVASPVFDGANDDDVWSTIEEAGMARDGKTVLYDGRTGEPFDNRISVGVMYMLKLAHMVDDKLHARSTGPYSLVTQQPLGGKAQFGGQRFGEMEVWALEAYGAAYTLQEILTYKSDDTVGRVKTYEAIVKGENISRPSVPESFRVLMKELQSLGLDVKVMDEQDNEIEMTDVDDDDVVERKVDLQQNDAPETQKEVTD
assay.explanation: Inhibition of Staphylococcus aureus RNA polymerase (fluorescence-detected)
Assay type: biochemical
measurement.parameters: read-out: IC50 S. aureus RNAP
readout.kind: pIC50
Formally, pIC50 is defined as -log10 of the concentration c, with c in mol/L.

Exercise: Note pIC50 for the compound shown: CCCCCC/C=C/C=C(\C)C(=O)c1c(O)cc(C(C)CC/C=C/NC(=O)OC)oc1=O (stereo not shown) [compound 2]
Solution: 7.64

Exercise: Note pIC50 for the compound shown: CCCCCC/C(C)=C/C=C(\C)C(=O)c1c(O)cc(CCC/C=C/NC(=O)OCC)oc1=O [compound 7]
Solution: 7.03

Exercise: Note pIC50 for the compound shown: CCCCC/C=C/C=C(\C)C(=O)c1c(O)cc(C(C)CC/C=C/NC(=O)OC)oc1=O (stereo not shown) [compound 1]
Solution: 7.28

Exercise: Note pIC50 for the compound shown: CCCCC/C(C)=C/C=C(\C)C(=O)c1c(O)cc(CCC/C=C/NC(=O)OC)oc1=O [compound 5]
Solution: 7.82

Exercise: Note pIC50 for the compound shown: CCCCCC/C(C)=C/C=C(\C)C(=O)c1c(O)cc(CCC/C=C/NC(=O)OC)oc1=O [compound 6]
Solution: 7.92

Exercise: Note pIC50 for the compound shown: CCCCCCCC/C=C/C=C(\C)C(=O)c1c(O)cc([C@H](C)CC/C=C/NC(=O)OC)oc1=O (racemic) [compound 4]
Solution: 8.08

Exercise: Note pIC50 for the compound shown: CCCCC/C(C)=C\C=C(/C)C(=O)c1c(O)cc(CCC/C=C/NC(=O)OC)oc1=O [compound 10]
Solution: 7.00

Exercise: Note pIC50 for the compound shown: CCCCCCC/C=C/C=C(\C)C(=O)c1c(O)cc(C(C)CC/C=C/NC(=O)OC)oc1=O (stereo not shown) [compound 3]
Solution: 7.77

Exercise: Note pIC50 for the compound shown: CCCCCC/C(C)=C/C=C(\C)C(=O)c1c(O)cc(C(C)CC/C=C/NC(=O)OC)oc1=O (stereo not shown) [compound 9]
Solution: 7.89

Exercise: Note pIC50 for the compound shown: CCCCC/C(C)=C/C=C(\C)C(=O)c1c(O)cc(C(C)CC/C=C/NC(=O)OC)oc1=O (stereo not shown) [compound 8]
Solution: 8.04
